# assay-method-text: soluble fraction after stress (log2 fold change); higher = more stays soluble; pooled small domains, quantitative proteomics
# run-conditions: stress: 50 degC
Could you please report measured soluble fraction (log2) for the items listed next?
Answer using only a numeral; do not append any unit.

Can you look up the measured soluble fraction (log2) of `HMSVKLYPNPTRSVTTFATDVDKWYLYDNQGKLVSEGNTKTIDVTAFPVGIYFVKTIKGNNSTFVKLIV` for me? -1.4

Can you look up the measured soluble fraction (log2) of `HMNTETAVTKAIDQIQVMMDLRNRSVSFTRDQETGTDIIKVIDDNTGDTIRQMPSEELLTFMKNLTQ` for me? 0.147

Can you look up the measured soluble fraction (log2) of `HMKIDELKAYLFQSVRVKNPHTQEYDTLKIIELNYYQDKIKAKLKNSDDDYITEMIFESIKHLQNFLG` for me? -0.298

Can you look up the measured soluble fraction (log2) of `HMSSESIKTDKNVGVGSTLEELEKAYGSDYTLSGKMYRYYQDDNSKYMYFFILNDVVQYYGYGIDV` for me? -1.53

Can you look up the measured soluble fraction (log2) of `HMNTYVLPDALKSQLSVEDTGMLTKQLQALPETLAEGVLDSLSQMLSKNTLQNPVGWMLAVMKRAREGNFN` for me? -0.00363

Can you look up the measured soluble fraction (log2) of `HMAPRDKADKYVAAGIAEELVPILQKVGYYLVTDLKDVKAQKIQQQIGEIIKKYKLDIEKPSVQDIEGWN` for me? 0.0612

Can you look up the measured soluble fraction (log2) of `HMEASVNAPMPGKIVSVSVSEGQQVNAGDVLLILEAMKMQNEITADAAGTVKAINVNAGQSVKNGDSLVIL` for me? 0.469

Can you look up the measured soluble fraction (log2) of `HMLSVRQRMGELLERLADGQFHRFESLFTVEEGKLGVVVTFLGLLTLAKEQLLDIVQEGPTAPIYVKSLA` for me? -0.437

Can you look up the measured soluble fraction (log2) of `HMQTTVHLSPEEMVIMNALKQESPIDLPILRAQVEMSNKLWDTSMKNLSKLGQLKVEKIGEQVSVSLI` for me? -0.257

Can you look up the measured soluble fraction (log2) of `HMASLSITVNGETRRAAPGSIADLVRAIGLDPAKVAVERNGEIAPRSTLADVALADGDVLEIVHFVG` for me? -0.0709

Can you look up the measured soluble fraction (log2) of `HMQLDLTSTLDHMYKQMRNDHPRALLMAVEKEMVLRALKETDGNQLRASDILGISRSTLRKRIEEFDINS` for me? -1.09

Can you look up the measured soluble fraction (log2) of `HMSVKLMEVKGASTVVSRQVREAVSIVFPTSSMRLDLVALKARIEGVDAVKRADVYLRNGILEIQIDER` for me? -1.99

Can you look up the measured soluble fraction (log2) of `HMKKILITGNSGYIGSHLSKMLENDYEVHGLDIRQPQHPVAKFYEQDINRPINIEEEYDAVIHLAALV` for me? -0.196

Can you look up the measured soluble fraction (log2) of `HMETIGKRVRAARQELGLTMKQLHEQTGLSTGNISDIENDRNTPSVSSLVALGRALRRSLDWLLTGEE` for me? -0.252

Can you look up the measured soluble fraction (log2) of `HMQEHAHLWRLMEDNRSFKADYIAFENGIVLLQNLSSGKISQYPITDFSIEDQLLILKRHELTAHINAN` for me? -3.09

Can you look up the measured soluble fraction (log2) of `HMGTPLYLLLAAEVRDRIATEQLAPHTAVPSERELAELHGVSRMTARQALALLESEGLVYRNPPRGTFVAE` for me? -0.85

----------
# assay-method-text: soluble fraction after stress (log2 fold change); higher = more stays soluble; pooled small domains, quantitative proteomics
# run-conditions: stress: 50 degC
soluble fraction (log2) below -0.3 gives 0 (no); soluble fraction (log2) at or above it gives 1 (yes).

# check: soluble fraction (log2) of `HMLGARSLNEAVARNLPQILAKYQLIHIAGKNGFNPELQGRGYVQYEYVDTELKDLMALADIVVSR` is greater than or equal to -0.3 0 (no)

# check: soluble fraction (log2) of `HMKLRYRTQEELLGVAREYRRRGLPLSVIVIDFYHWTKFGDWKFDPAYWPDPVGMVRELRDMGVEAAV` is greater than or equal to -0.3 1 (yes)

# check: soluble fraction (log2) of `HMEKERYDTGIGELNRVLGGGLVKGSLILISGDPGIGKSTLLLQTANNISKKYGKVLYVSGEESEEQIKIR` is greater than or equal to -0.3 0 (no)

# check: soluble fraction (log2) of `HMSERVVEIDPSQLRPGLFIRLPSGWMNHPFLFNQFRINSAEQVEIIQKLGLKTVQYLPERSSTQALPRA` is greater than or equal to -0.3 0 (no)

# check: soluble fraction (log2) of `HMSAEDYLERIHELIESKGTAHVADIAQSLGVGKPSVTSMVQKLADEGYLNYEKYRSLTLTDSGRSIA` is greater than or equal to -0.3 1 (yes)

# check: soluble fraction (log2) of `HMAQKQLYIAGTDYTKNSTSQLVLAYFPAKPSSIKIFFDGIYQNKDKWSLFGKTIIFGLPISSNAVEVHYE` is greater than or equal to -0.3 0 (no)

# check: soluble fraction (log2) of `HMAATNVKVPDLKGWDYNNAVGKYGDKLSFVKKSIYSDSVSKGIIIYNARVGETVAQGTTIEVTVSLGPKG` is greater than or equal to -0.3 1 (yes)

# check: soluble fraction (log2) of `HMGDVKLNAIYNFLKEFSALNGFPPSVREIGAKFGIKSTSTVHYYLEKLKQSGVIQQEENKKRAVVIN` is greater than or equal to -0.3 0 (no)

# check: soluble fraction (log2) of `HMFSMKDFGQRLRQLRKERGLTQGDLARLAKIDIMQVSRYERGLGLPSLETAIALARVLETSTDLLFLG` is greater than or equal to -0.3 0 (no)

# check: soluble fraction (log2) of `HMRSSAATMFGRIALKNKLVDEATLKKVMSELPAGADLGAVLVKQGLISEQHAEAIQKKITAHMKSAP` is greater than or equal to -0.3 1 (yes)

# check: soluble fraction (log2) of `HMFSVVDKITLQEELKKLSKKEQLLIQLRYYDELNQEEIAKIFHVSQVQISRMEKKIIEKLKKQF` is greater than or equal to -0.3 0 (no)

# check: soluble fraction (log2) of `HMQGNGKVATELLKDIIASDNLYINAMRMLVMHYNSKGTNQVEMVKLLHNILDLVPDDEYANEILKSAKKA` is greater than or equal to -0.3 0 (no)

# check: soluble fraction (log2) of `HMKFINISIDKSGNLFINKKSIKFQDLKYNVVNLVDESKNLVVLNADENISHGYVISVLDVLRSIDGLKLA` is greater than or equal to -0.3 0 (no)

# check: soluble fraction (log2) of `HMYSQEEKRYMEIMEIKPQELSAENLKKQYKKLVKKYHPDLHQDDKQAAEEKFKQLTNAYQVLMRRF` is greater than or equal to -0.3 1 (yes)

# check: soluble fraction (log2) of `HMKRVTRQRTEILRVIDESERPLGPQEILQAGREAIPSLSIATIYRTLRDLLAEELIKTVALPGDSPRYES` is greater than or equal to -0.3 0 (no)

# check: soluble fraction (log2) of `HMADLIVFTTDANKEKKVDDETYFYLDVVSDGKLVENYELTEKQYNYIKDLGVGEYVYNEKGKLDSYTAFT` is greater than or equal to -0.3 1 (yes)

# check: soluble fraction (log2) of `HMNDTSLIIDNLMLKLGNNIKNFSEIYSLLRKNLAEYGEEFIKSKVDYVLKNFNDNIEENLKKLLTE` is greater than or equal to -0.3 1 (yes)

# check: soluble fraction (log2) of `HMNPNPFVNLSPRELEVLNLLFKGYGVLEISNELNIGQTTASTFKSRILKKTSTHSVVELIKLAEQYGFIP` is greater than or equal to -0.3 0 (no)

# check: soluble fraction (log2) of `HMLIDQYPYSIIYRLIPHGRSNAVPAAQIVGLTKLDERSIRIYVEAMRREGHIIASSSKGYYFPASIEE` is greater than or equal to -0.3 0 (no)

# check: soluble fraction (log2) of `HMHSPLLDRYLAEVGWRLRHLSGAQREDILAGLREHIADLESAGVAPEEIVARLGSPESVADAAAGEF` is greater than or equal to -0.3 0 (no)

# check: soluble fraction (log2) of `HMVVVMNADAEADEIKRVKWNLEQMLFRTQVIYGVKRIVIGAIGDQREVDLSEIEQMPKVDKIVRISK` is greater than or equal to -0.3 0 (no)

# check: soluble fraction (log2) of `HMVGAEDISKPMNLGALMRTAHAFGASFFFTINAHPKVRHAYNSDTSRSFDHMPYYPWDTMEE` is greater than or equal to -0.3 1 (yes)

# check: soluble fraction (log2) of `HMDTNPKVIITMDGVNVRSSASTGSDILFIAEKGEEYELISESGDFYKILYEGNKEGYVASWLVETSE` is greater than or equal to -0.3 1 (yes)

# check: soluble fraction (log2) of `HMTKASYKITTPSGVNVREGAGKRYAVRKAYPKGKTVTVTQTKEVNGNLWGKTSDGWFAIKYQGAVYASA` is greater than or equal to -0.3 0 (no)

# check: soluble fraction (log2) of `HMLEQEQFESKLLKAINNINETQRIAFLMHRIDGKKYAEIASELNISVKAVEKRIHLALIELKKEIENF` is greater than or equal to -0.3 0 (no)

# check: soluble fraction (log2) of `HMSEMDNMEWVREQYFQNMIYEIGEWVRDKKTGIVGEVVKRGTNYVTVVQEDFSLHKIWLEDLETTEK` is greater than or equal to -0.3 0 (no)

# check: soluble fraction (log2) of `HMGMYAEERHQAIASLARKHGRVSVAELAERFNVTSETIRRDLDSLARRGLLTRVHGGAVPVE` is greater than or equal to -0.3 1 (yes)

# check: soluble fraction (log2) of `HMIKKLDIEPIIKSVVDDFNNIYKLKRGITISYLNDGKNKYFINGIENRIEQIIANLLDNSISFSEDNKDV` is greater than or equal to -0.3 1 (yes)

# check: soluble fraction (log2) of `HMSQTDQALRHLIREAWATLPQRQQQAVELAYYEGLPDTEIAARLNQPVEEVKTSIVLGMAHLREALHSY` is greater than or equal to -0.3 0 (no)

# check: soluble fraction (log2) of `HMDPSWVPVFNNLRDAILSHQLLPGTRLAEDELSNIYGLGRTVIRSALGALTHEGLLTHIPNRGVHVAKP` is greater than or equal to -0.3 0 (no)

# check: soluble fraction (log2) of `HMVGDLPPQELRVFELIGDGLSNREIADEMILAEKTIKNYVTSLLQKLGMQRRTEAAAFAARLDER` is greater than or equal to -0.3 1 (yes)

# check: soluble fraction (log2) of `HMTKKFQIQTLDKLNVRKVADWNASAVTTVKKGQILDVVAEVSPKNGSTKMYKLESGLYITASEKYVKKQG` is greater than or equal to -0.3 1 (yes)

# check: soluble fraction (log2) of `HMHPKTPDELLALMSEEQRGQIEQLAKLVLMAVSYSGASYYDAVTTMYPRMSEERRRIITHVLNTASP` is greater than or equal to -0.3 0 (no)
